Just for reference, paper PMC7531004 is where these values come from.

experiment: H+/Na+ transport assay of purified peptides; conditions: read-out: EC50, H+/Na+ transport assay; 3rd experiment
Where a SMILES comes first, the peptide text is derived from it. [ ]: non-standard residue; d: D form. The star is where a group is joined. NHCH2CH2OH = OCCN*; For = O=C*
Experimental Endpoint: EC50

Please give the measured EC50 for this compound: CC(C)C[C@@H](NC(=O)[C@H](Cc1c[nH]c2ccccc12)NC(=O)[C@H](NC(=O)[C@@H](NC(=O)[C@H](NC(=O)[C@H](C)NC(=O)[C@H](NC(=O)[C@H](C)NC(=O)CNC(=O)[C@@H](NC=O)C(C)C)C(C)C)C(C)C)C(C)C)C(C)C)C(=O)N[C@@H](Cc1c[nH]c2ccccc12)C(=O)N[C@@H](C(=O)N[C@@H](Cc1c[nH]c2ccccc12)C(=O)N[C@@H](C(=O)N[C@@H](Cc1c[nH]c2ccccc12)C(=O)NCCO)C(C)C)C(C)C [B01] (For-VGA[dV]A[dV]V[dV]W[dL]W[dV]W[dV]W-NHCH2CH2OH) 2.49 nM

* * *

Record form. Attribute: pEC50. Fill in for each entry.
assay: H+/Na+ transport assay of purified peptides; conditions: read-out: H+/Na+ transport activity EC50; EYPC/EYPG (19:1) LUVs
Where a SMILES comes first, the peptide text is derived from it. [ ]: non-standard residue; d: D form. The star is where a group is joined. NHCH2CH2OH = OCCN*; For = O=C*
Give bare numbers, as −log10 of the molar value.

- Compound: "CC(C)C[C@@H](NC(=O)[C@H](C)NC(=O)[C@H](NC(=O)[C@H](C)NC(=O)CNC(=O)[C@@H](NC=O)C(C)C)[C@H](C)O)C(=O)N[C@H](C(=O)N[C@H](CC(C)C)C(=O)N[C@@H](Cc1c[nH]c2ccccc12)C(=O)N[C@@H](C(=O)N[C@@H](Cc1c[nH]c2ccccc12)C(=O)N[C@H](CC(C)C)C(=O)N[C@@H](Cc1c[nH]c2ccccc12)C(=O)N[C@@H](C(=O)N[C@@H](Cc1c[nH]c2ccccc12)C(=O)NCCO)C(C)C)[C@H](C)O)C(C)C [B21] (For-VGA[dT]A[dL]V[dL]W[dT]W[dL]W[dV]W-NHCH2CH2OH)"
  Reported Measurement: 8.82

Attention now shifts to the item below.
Suppose we examine the compound CC(C)C[C@@H](NC(=O)[C@H](Cc1c[nH]c2ccccc12)NC(=O)[C@H](NC(=O)[C@@H](NC(=O)[C@H](NC(=O)[C@H](C)NC(=O)[C@H](NC(=O)[C@H](C)NC(=O)CNC(=O)[C@@H](NC=O)C(C)C)C(C)C)C(C)C)C(C)C)C(C)C)C(=O)N[C@@H](Cc1c[nH]c2ccccc12)C(=O)N[C@@H](C(=O)N[C@@H](Cc1c[nH]c2ccccc12)C(=O)N[C@@H](C(=O)N[C@@H](Cc1c[nH]c2ccccc12)C(=O)NCCO)C(C)C)C(C)C [B01] (For-VGA[dV]A[dV]V[dV]W[dL]W[dV]W[dV]W-NHCH2CH2OH) ; what pEC50 value has been reported? 8.64

* * *

tested on: Streptococcus pyogenes SSI-9; test: Antibacterial activity assay of bead-derived peptides (three concentrations); type: cell-based; design: key: +++: inhibition by the 640-fold diluted peptide solution; ++: inhibition by the 160-fold diluted solution; +: inhibition by the 40-fold diluted solution; -: no inhibition; settings: S. pyogenes, bead-derived peptide solution, three concentrations
Where a SMILES comes first, the peptide text is derived from it. [ ]: non-standard residue; d: D form. The star is where a group is joined. NHCH2CH2OH = OCCN*; For = O=C*

- Compound: "CC(C)C[C@@H](NC(=O)[C@H](C)NC(=O)[C@H](NC(=O)[C@H](C)NC(=O)CNC(=O)[C@@H](NC=O)C(C)C)C(C)C)C(=O)N[C@H](C(=O)N[C@@H](C(=O)N[C@@H](Cc1c[nH]c2ccccc12)C(=O)N[C@H](CC(C)C)C(=O)N[C@@H](Cc1c[nH]c2ccccc12)C(=O)N[C@@H](C(=O)N[C@@H](Cc1c[nH]c2ccccc12)C(=O)N[C@H](CC(C)C)C(=O)N[C@@H](Cc1c[nH]c2ccccc12)C(=O)NCCO)[C@H](C)O)C(C)C)C(C)C [compound 9177] (For-VGA[dV]A[dL]V[dV]W[dL]W[dT]W[dL]W-NHCH2CH2OH)"
  antibacterial activity: "-"
- Compound: "CC(C)C[C@@H](NC(=O)[C@H](Cc1c[nH]c2ccccc12)NC(=O)[C@H](NC(=O)[C@H](Cc1c[nH]c2ccccc12)NC(=O)[C@H](NC(=O)[C@H](Cc1c[nH]c2ccccc12)NC(=O)[C@@H](CC(C)C)NC(=O)[C@@H](NC(=O)[C@H](NC(=O)[C@H](C)NC(=O)[C@H](NC(=O)[C@H](C)NC(=O)CNC(=O)[C@@H](NC=O)C(C)C)C(C)C)C(C)C)C(C)C)C(C)C)C(C)C)C(=O)N[C@@H](Cc1c[nH]c2ccccc12)C(=O)NCCO [compound 12721] (For-VGA[dV]A[dV]V[dL]W[dV]W[dV]W[dL]W-NHCH2CH2OH)"
  antibacterial activity: "+"
